method.description: Cytotoxicity on primocultures at 24 hours (neutral red), fibroblasts
Type: cell-based
cond: fibroblasts; 24 hours; 10^-3M; read-out: Cellular Viability Rate
measured.property: viability at 24 h, 1000 µM (%)
Express it in %; write the number only.

>>> recorded_number("CC(CCCCCC/C=C\\CCCCCCCC(=O)O)O[C@@H]1O[C@H](CO)[C@@H](O)[C@H](O)[C@H]1O[C@@H]1O[C@H](CO)[C@@H](O)[C@H](O)[C@H]1O (some centres unmarked) [Sophorolipid in Acid Form]")
85.7

Here is another molecule to look at.
The molecule listed as CC1CCCCCC/C=C\CCCCCCCC(=O)O[C@H]2[C@H](O)[C@@H](O)[C@H](O[C@H]3[C@H](O1)O[C@H](CO)[C@@H](O)[C@@H]3O)O[C@@H]2CO (some centres unmarked) [Sophorolipid in Lactone Form] has a reported viability at 24 h, 1000 µM of 5.96

Origin of measurements: patent US5981497A
